# Lookup of reported inhibition at 10 µM keyed by entry
biological target: IGF-1R (Homo sapiens); construct: purchased Upstate Co. 14-465; test: IGF-1R inhibitory activity (kinase reaction, time-resolved fluoroimmunoassay); type: biochemical; settings: test compound 10 μmol/L
Sequence (P08069 959-1367 limits assumed): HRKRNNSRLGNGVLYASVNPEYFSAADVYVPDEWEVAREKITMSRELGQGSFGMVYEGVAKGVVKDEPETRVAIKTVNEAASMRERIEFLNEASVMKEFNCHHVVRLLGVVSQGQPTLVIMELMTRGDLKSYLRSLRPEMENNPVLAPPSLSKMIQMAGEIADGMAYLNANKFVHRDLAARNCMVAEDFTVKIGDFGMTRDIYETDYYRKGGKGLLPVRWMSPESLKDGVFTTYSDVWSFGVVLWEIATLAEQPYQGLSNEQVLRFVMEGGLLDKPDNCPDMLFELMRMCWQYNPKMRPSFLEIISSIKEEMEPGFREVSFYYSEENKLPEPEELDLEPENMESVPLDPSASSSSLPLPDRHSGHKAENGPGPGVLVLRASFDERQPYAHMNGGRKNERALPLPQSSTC
Reply with just the number (in %).

{"molecule": "COc1cc(/C=C/c2n[nH]c3ccccc23)c(NC(=O)c2cccn2C)cc1OC [Compound 96]", "unit-name": "%", "test-value": 100}

Next, consider the following molecule.
The value of inhibition at 10 µM recorded for Cc1ccsc1C(=O)Nc1cc(CO)ccc1/C=C/c1n[nH]c2ccccc12 [Compound 108] when tested on IGF-1R (Homo sapiens) reads 95
